- Test system: SF-539 CNS
- assayInfo: NCI tumour cell line growth inhibition, 48 h
What TGI was measured for each of the following?

// assay SF-539 CNS, entry CC1NC(=O)C2=C1C(=O)NC(=O)C2 (stereo not given) , TGI value = > 100 µM

// assay SF-539 CNS, entry CSc1ccc(Nc2cc(=O)[nH]c(=O)[nH]2)cc1 , TGI value = > 100 µM

// assay SF-539 CNS, entry CC(C)C(OC(=O)c1ccc(NCC2=CC(=O)C=CC2=O)cc1)C(C)C , TGI value = 4.1 µM

// assay SF-539 CNS, entry CC(C)=CCCC(C)CCOS(=O)C(F)(F)F (stereo not given) , TGI value = > 100 µM

// assay SF-539 CNS, entry COc1ccc(-c2c3c(n(C4OC(CO)C(O)C(O)C4O)c(=S)c2C#N)CCCC3)cc1 (stereo not given) , TGI value = > 100 µM

// assay SF-539 CNS, entry O=C1Nc2nccnc2C(=O)N2CCC[C@@H]12 , TGI value = > 100 µM

// assay SF-539 CNS, entry CN1CCN(C(=O)COc2ccc(/C=C3\CC4C5CC=C6CC(Cl)CCC6(C)C5CCC4(C)C3=O)cc2)CC1 (stereo not given) , TGI value = > 100 µM

// assay SF-539 CNS, entry Cc1ccc2nc(C(C)C)c(=O)[nH]c2c1 , TGI value = > 100 µM

// assay SF-539 CNS, entry Fc1ccc2c3c([nH]c2c1)CCN(Cc1ccccc1)C3 , TGI value = 39 µM

// assay SF-539 CNS, entry CCCCCCCCCC[C@H](O)[C@H](O)CC[C@@H](O)[C@H]1CC[C@@H]([C@H]2CC[C@H](CCCCCCC[C@@H](O)CC3=C[C@H](C)OC3=O)O2)O1 , TGI value = 40.9 µM

// assay SF-539 CNS, entry CCCCCCCC/C=C/CCCCCCCC1=NC(C)(C)CN1CCO , TGI value = 3.07 µM

// assay SF-539 CNS, entry O=C(NCC1CCCO1)c1ccc(NC2=C(Cl)C(=O)N(Cc3ccccc3)C2=O)cc1 (stereo not given) , TGI value = 31.2 µM

// assay SF-539 CNS, entry Nc1ccccc1C(=O)CCC1C(=O)NC(=S)NC1=O , TGI value = > 100 µM

// assay SF-539 CNS, entry CC(=O)[CH-]C(=O)c1ccccc1.CC(=O)[CH-]C(=O)c1ccccc1.CC(=O)[CH-]C(=O)c1ccccc1.[Nd+3].[OH3+] , TGI value = > 100 µM

// assay SF-539 CNS, entry COc1cc(C2(c3ncc[nH]3)SSSCC2O)ccc1O (stereo not given) , TGI value = > 100 µM

// assay SF-539 CNS, entry CC(C)=CCC[C@@H](C)C1=C(O)C(Nc2ccccc2Cl)=C(C)C(=O)C1=O , TGI value = 35.7 µM

// assay SF-539 CNS, entry Clc1cccc(-c2nnc(-c3nn(-c4ccccc4)c4nc5ccccc5nc34)o2)c1 , TGI value = > 100 µM

// assay SF-539 CNS, entry OC(CN(CCCl)CCCl)C(O)C(O)C(O)CN(CCCl)CCCl (stereo not given) , TGI value = > 100 µM

// assay SF-539 CNS, entry C#CCN(c1ccc(C(=O)N[C@@H](CCC(=O)N[C@H](CCC(=O)O)C(=O)O)C(=O)O)cc1)C1CCc2cc3nc(CO)[nH]c(=O)c3cc21 (stereo not given in full) , TGI value = > 100 µM

// assay SF-539 CNS, entry CC(=O)[CH-]C(=O)c1ccccc1.CC(=O)[CH-]C(=O)c1ccccc1.O=S(=O)([O-])c1cc([O-])c2c([O-])cc(S(=O)(=O)[O-])cc2c1.[Na+].[Zr+4] , TGI value = > 100 µM
